- Assay name: Hydrogel formation, confirmed by vial inversion method
- Format: physicochemical
- Condition details: 1.5% w/v in PBS; time after the pH was adjusted to 7.4
- Method: Lyophilized fatty acid–peptide conjugates were dissolved in phosphate-buffered saline (PBS) at a final concentration of 0.5% (5.0 mg in 1 mL of PBS), 1.5% (15.0 mg in 1 mL of PBS), and 3% (30.0 mg in 1 mL of PBS). The pH of the peptide solutions was increased to 9.0 by adding 0.1 M NaOH to dissolve the compounds and readjusted to pH 2–8 by the drop-wise addition of 0.1 N HCl, followed by sonication. […] The gel formation was confirmed by the vial inversion method, and photographs were taken.
Where a SMILES comes first, the peptide text is derived from it. The star is where a group is joined. Palmitoyl = CCCCCCCCCCCCCCCC(=O)*; Lauroyl = CCCCCCCCCCCC(=O)*; Octanoyl = CCCCCCCC(=O)*
Assay metric: Gelation Time (min)

CCCCCCCC(=O)N[C@H](C(=O)N[C@@H](CC(C)C)C(=O)N[C@@H](CC(=O)O)C(N)=O)C(C)C [Compound 13] (Octanoyl-Val-Leu-Asp-NH2)
6
CCCCCCCCCCCC(=O)N[C@H](C(=O)N[C@@H](CC(C)C)C(=O)N[C@@H](CC(=O)O)C(=O)O)[C@@H](C)CC [Compound 6] (Lauroyl-Ile-Leu-Asp-OH)
7

A. CCCCCCCCCCCC(=O)N[C@H](C(=O)N[C@@H](CC(C)C)C(=O)N[C@@H](CC(=O)O)C(N)=O)[C@@H](C)CC [Compound 3] (Lauroyl-Ile-Leu-Asp-NH2)
B. CCCCCCCCCCCCCCCC(=O)N[C@H](C(=O)N[C@@H](CC(C)C)C(=O)N[C@@H](CC(=O)O)C(N)=O)[C@@H](C)CC [Compound 4] (Palmitoyl-Ile-Leu-Asp-NH2)
In terms of reported Gelation Time, does A or B have the smaller number? Write the label of whichever entry you select.
A
(A: 6 min, B: 10 min)

====

- Assay name: Hydrogel formation, confirmed by vial inversion method
- Assay type: physicochemical
- Condition details: 1.5% w/v in PBS; time after the pH was adjusted to 7.4
Where a SMILES comes first, the peptide text is derived from it. The star is where a group is joined. Palmitoyl = CCCCCCCCCCCCCCCC(=O)*; Myristoyl = CCCCCCCCCCCCCC(=O)*; Octanoyl = CCCCCCCC(=O)*
Assay metric: Gelation Time (min)

Illustrative cases are given below, each with its answer.
CCCCCCCC(=O)N[C@H](C(=O)N[C@H](C(=O)N[C@@H](CC(=O)O)C(N)=O)C(C)C)[C@@H](C)CC [Compound 10] (Octanoyl-Ile-Val-Asp-NH2)
3
CCCCCCCCCCCCCCCC(=O)N[C@H](C(=O)N[C@@H](CC(C)C)C(=O)N[C@@H](CC(=O)O)C(=O)O)[C@@H](C)CC [Compound 8] (Palmitoyl-Ile-Leu-Asp-OH)
15
CCCCCCCC(=O)N[C@@H](C)C(=O)N[C@@H](CC(C)C)C(=O)N[C@@H](CC(=O)O)C(N)=O [Compound 11] (Octanoyl-Ala-Leu-Asp-NH2)
3

I. CCCCCCCCCCCCCC(=O)N[C@H](C(=O)N[C@@H](CC(C)C)C(=O)N[C@@H](CC(=O)O)C(=O)O)[C@@H](C)CC [Compound 7] (Myristoyl-Ile-Leu-Asp-OH)
II. CCCCCCCC(=O)N[C@H](C(=O)N[C@H](C(=O)N[C@@H](CC(=O)O)C(N)=O)[C@@H](C)CC)[C@@H](C)CC [Compound 14] (Octanoyl-Ile-Ile-Asp-NH2)
When their Gelation Time values are compared, which is larger, I or II ? When you have decided, please share the label of that item.
I
